Cited source for all entries: patent US7947701B2

system: P. falciparum FcB1-Columbia strain; assay: Antimalarial chemosensitivity test (radioactive micromethod, tritiated hypoxanthine incorporation) on FcB1-Columbia strain; type: cell-based; conditions: Plasmodium falciparum, Erythrocyte; FcB1-Columbia strain (moderately chloroquine resistant), in human red blood cells, 48 h incubation; read-out: IC50 (concentration required to inhibit parasite growth by 50%)
pIC50: −log10 of the molar value.
Readout label: pIC50

{"Smiles string": "C[C@@H]1CC[C@H]2[C@@H](C)C(=O)O[C@@H]3O[C@@]4(C)CC[C@@H]1[C@]32OO4", "Readout label": "pIC50", "Reported result": 7.96}
